Hello, the source for this data is ChEMBL document CHEMBL1201862, in case you need it.

Test system: M14
PROTOCOL TEXT: NCI tumour cell line growth inhibition, 48 h
Active and inactive are the calls of the source. Rule as the data show it: active = GI50 up to about 1.1 µM and inactive = higher.
GI50 values for the compounds below.

>>> observed_measurement("COc1cc2cccc(NC(=O)c3cc(OC)c(OC)c(OC)c3Br)c2cc1OC")
"11.3 µM (inactive)"

response.value for O=[N+]([O-])c1cccc2nccc(NCC(O)CO)c12 (stereo not given) (field: GI50) = 17.4 µM (inactive)

Consider CC1(Br)C(=O)NC(=O)N([C@H]2C[C@H](O)[C@@H](CO)O2)C1N=[N+]=[N-] (stereo not given in full) . Its measured GI50 is > 100 µM (inactive)

GI50 recorded for this compound, NC1=NN(c2ccccc2)C(=O)C1C(=O)C(=O)NC1C2CC3CC(C2)CC1C3 (stereo not given) , is > 100 µM (inactive)

COc1ccc(N2C(=O)/C(=C\c3cc(OC)c(OC)c(OC)c3)S(=O)(=O)C2c2ccccc2)cc1 (stereo not given) has a reported GI50 of 19.4 µM (inactive)
